molecular target: Carboxy-terminal domain RNA polymerase II polypeptide A small phosphatase 1 (Homo sapiens, UniProt Q9GZU7); assay: inhibitors of CTDSP1, concentration-response testing, biochemical assay, absorbance-based, actives from ultra-high-throughput screening (AID 540297); assay type: functional
Sequence (Q9GZU7 whole entry, the tested form may be a part): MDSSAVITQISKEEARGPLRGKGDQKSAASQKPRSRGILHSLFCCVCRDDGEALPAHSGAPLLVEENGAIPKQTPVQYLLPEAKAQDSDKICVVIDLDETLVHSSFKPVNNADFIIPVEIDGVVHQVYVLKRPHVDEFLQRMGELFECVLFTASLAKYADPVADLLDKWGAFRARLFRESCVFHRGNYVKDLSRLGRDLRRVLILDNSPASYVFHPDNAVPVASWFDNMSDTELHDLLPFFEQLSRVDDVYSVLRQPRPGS
Calls of active or inactive are those of the source.
Measure name: IC50

Field: example entries. Status: answers known.
1) O=C(Cn1cnc2sc(-c3ccccc3)cc2c1=O)NCc1ccccc1
7.5 µM (active)
2) CCOc1ccc(CNC(=O)Cn2nc(C)c3c(C)n(-c4ccc(C)cc4)nc3c2=O)cc1
6.46 µM (active)

Quick one: IC50 of "NC(=O)c1ccc(NC(=O)COC(=O)c2cc3c(s2)CCC3)cc1" ?
4.91 µM (active)

State the recorded IC50 for this entry: C=C(C)C(=O)Nc1cccc(C2=NOC3(C2)C[C@@H](C(N)=O)N(C(=O)CC(c2ccccc2)c2ccccc2)C3)c1 (stereo partly drawn)
6.38 µM (active)

# input compound: "COc1cc(Cl)c(C)cc1NC(=O)CSc1sc2c(O)cc(=O)[nH]c2c1C#N" ; wanted: its IC50
2.46 µM (active)

Query: IC50; subject: "Cc1ccc2cc(C)c3nnc(SCC(=O)NCc4ccco4)n3c2c1"
8.54 µM (active)

What does the record list as IC50 for "CCOC(=O)c1cc(-c2ccc(N3CCOCC3)cc2)nn1-c1ccccc1C(=O)O" ?
5.98 µM (active)

----------
Target: Short transient receptor potential channel 4 (Mus musculus, UniProt Q9QUQ5)
Sequence (Q9QUQ5 whole entry): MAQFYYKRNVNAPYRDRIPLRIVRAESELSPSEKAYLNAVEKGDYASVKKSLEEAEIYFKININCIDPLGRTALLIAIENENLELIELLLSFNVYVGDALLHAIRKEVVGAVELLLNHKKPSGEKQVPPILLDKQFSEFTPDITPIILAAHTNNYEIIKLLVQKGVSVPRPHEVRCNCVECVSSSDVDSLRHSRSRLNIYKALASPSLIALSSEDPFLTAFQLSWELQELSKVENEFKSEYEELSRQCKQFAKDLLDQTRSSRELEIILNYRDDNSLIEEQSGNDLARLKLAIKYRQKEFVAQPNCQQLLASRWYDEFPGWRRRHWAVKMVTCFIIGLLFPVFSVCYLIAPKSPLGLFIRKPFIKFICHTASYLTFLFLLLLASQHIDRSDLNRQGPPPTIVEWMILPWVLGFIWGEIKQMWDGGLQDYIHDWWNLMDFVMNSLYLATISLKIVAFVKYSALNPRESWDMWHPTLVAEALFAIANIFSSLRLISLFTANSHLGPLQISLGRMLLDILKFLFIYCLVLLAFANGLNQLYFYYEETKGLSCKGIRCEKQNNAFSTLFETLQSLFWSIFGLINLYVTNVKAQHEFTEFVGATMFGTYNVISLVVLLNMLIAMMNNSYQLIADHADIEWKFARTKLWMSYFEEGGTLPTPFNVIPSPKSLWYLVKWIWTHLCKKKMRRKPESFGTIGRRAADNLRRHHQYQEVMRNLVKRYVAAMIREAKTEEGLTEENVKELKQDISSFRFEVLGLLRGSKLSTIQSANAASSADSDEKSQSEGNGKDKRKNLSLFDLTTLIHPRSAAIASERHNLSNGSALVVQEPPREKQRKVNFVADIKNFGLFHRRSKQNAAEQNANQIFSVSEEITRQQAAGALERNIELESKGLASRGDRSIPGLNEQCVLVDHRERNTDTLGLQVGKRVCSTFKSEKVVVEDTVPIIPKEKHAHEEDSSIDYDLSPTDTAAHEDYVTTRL
Assay: mouse TRPC4 channel inhibitors, dose response, cell-based, HEK293 TRPC4/mu-opioid, Fluo-4 calcium (AID 434942);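 further: potency of inhibitors blocking the TRPC4 calcium response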
Type: functional
Active and inactive are the calls of the source.
Measure name: EC50

Consider the worked cases shown below.
1) Cc1cc(Cl)c2oc(C(=O)N(C)Cc3nccn3C)c(C)c2c1
531 nM (active)
2) CCn1c2ccccc2c2cc(/C=N/NC(=O)c3cc(O)cc(O)c3)ccc21
749 nM (active)
3) COc1cc(CNCCCN2CCOCC2)cc(Br)c1OCc1ccc(Cl)cc1
5960 nM (active)
4) O=[N+]([O-])c1cc2c(cc1CNCCc1ccc3c(c1)OCO3)OCO2
1060 nM (active)
5) COC(=O)CSc1nnc(-c2sc3cc(OC)ccc3c2Cl)n1C
531 nM (active)

# input for lookup
Any idea what EC50 was measured for CC1CCc2nc(NC(=O)CN3CCN(Cc4ccc5c(c4)OCO5)CC3)sc2C1 (stereo unspecified) ?
299 nM (active)

----------
Recorded IC50, one value per entry.
target: UniProt P03070; format: functional, Betapolyomavirus macacae
Sequence (P03070 whole entry): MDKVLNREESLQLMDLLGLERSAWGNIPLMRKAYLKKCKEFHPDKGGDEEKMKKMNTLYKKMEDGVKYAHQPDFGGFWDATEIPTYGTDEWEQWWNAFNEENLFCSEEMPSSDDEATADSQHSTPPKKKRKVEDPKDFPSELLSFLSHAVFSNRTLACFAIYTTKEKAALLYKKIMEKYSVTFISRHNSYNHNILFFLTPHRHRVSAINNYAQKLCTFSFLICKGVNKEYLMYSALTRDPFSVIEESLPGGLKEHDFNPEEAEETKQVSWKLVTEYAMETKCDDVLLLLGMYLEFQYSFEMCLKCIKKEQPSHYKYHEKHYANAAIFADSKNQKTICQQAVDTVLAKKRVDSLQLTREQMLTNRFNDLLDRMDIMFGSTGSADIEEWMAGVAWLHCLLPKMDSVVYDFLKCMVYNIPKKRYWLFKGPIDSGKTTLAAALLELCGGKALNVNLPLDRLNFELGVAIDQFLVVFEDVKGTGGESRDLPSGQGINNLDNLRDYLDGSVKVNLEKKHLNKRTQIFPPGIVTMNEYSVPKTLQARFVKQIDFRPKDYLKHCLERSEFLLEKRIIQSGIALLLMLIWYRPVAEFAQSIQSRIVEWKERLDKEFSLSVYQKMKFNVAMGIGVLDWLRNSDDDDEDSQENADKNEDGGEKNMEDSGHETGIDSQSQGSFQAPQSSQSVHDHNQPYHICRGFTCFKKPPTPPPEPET
Active and inactive are the calls of the source.

1) COc1cc(/C=C2\SC(c3ccc(C)cc3)=NC2=O)cc(OC)c1O
16.5 µM (active)
2) CCOc1cc(/C=N/NC(=O)N/N=C/c2ccc(O)c(OCC)c2)ccc1O
4.27 µM (active)
3) O=C(CCN1C(=O)/C(=C/c2ccco2)SC1=S)Nc1ccc(C(=O)O)c(O)c1
56.1 µM (active)

In the following, a different molecule is considered.
So what's the measured IC50 for this one? "O=C1NC(=O)C(=Cc2ccc(-c3ccc(F)cc3O)o2)C(=O)N1"
39.9 µM (active)

----------
Target: UniProtKB P10520
Sequence (P10520 whole entry): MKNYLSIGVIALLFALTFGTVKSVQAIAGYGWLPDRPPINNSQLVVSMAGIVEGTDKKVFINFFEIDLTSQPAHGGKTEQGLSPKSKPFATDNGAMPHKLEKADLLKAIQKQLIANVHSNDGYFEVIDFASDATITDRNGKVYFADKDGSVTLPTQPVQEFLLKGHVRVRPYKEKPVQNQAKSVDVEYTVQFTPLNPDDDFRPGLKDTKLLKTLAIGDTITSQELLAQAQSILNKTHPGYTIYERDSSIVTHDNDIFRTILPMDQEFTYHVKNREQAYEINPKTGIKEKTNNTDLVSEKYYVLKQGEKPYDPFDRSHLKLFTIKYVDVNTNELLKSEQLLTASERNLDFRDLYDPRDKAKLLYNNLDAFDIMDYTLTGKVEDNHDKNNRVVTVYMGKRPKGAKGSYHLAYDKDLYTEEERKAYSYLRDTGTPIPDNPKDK
Assay: S. pyogenes streptokinase expression inhibitors, potency, dose response, plasminogen activation absorbance, OD405 (AID 1914);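 further: secreted streptokinase activity via plasminogen activation per viability signal from cell pellet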
Assay type: functional, Streptococcus pyogenes M1 GAS
Calls of active or inactive are those of the source.
Measure name: EC50

1) O=C1NC(=O)/C(=C\c2ccc(OCc3ccccc3)cc2)S1
> 50 µM (not active)
2) CCCCNC(=O)c1onc(CSc2ccc(C(C)C)cc2)c1C(=O)O
2.28 µM (active)
3) CC1CCCCC1NC(=O)CCn1ccc2cc(S(=O)(=O)N3CCCC3)ccc21 (centres undefined)
> 150 µM (not active)

So what EC50 did "COc1cccc(/C=N/Nc2nc(Nc3ccccc3)nc(-n3nc(C)cc3C)n2)c1O" get with UniProtKB P10520?
> 150 µM (not active)

Notebook entry, UniProtKB P10520 assay: EC50 of "c1ccc(-n2c3ccccc3c3ccccc32)cc1" = ?
> 150 µM (not active)

EC50 of O=C(CSc1nnc(NC(=O)c2cccc(F)c2)s1)NCC1CCCO1 (centres undefined) on UniProtKB P10520?
> 150 µM (not active)

GET /values?readout=EC50&system=UniProtKB P10520&item= "CCc1cc2c(COC(=O)c3cccc(NS(C)(=O)=O)c3)cc(=O)oc2cc1O"
> 150 µM (not active)

Request: EC50, test system UniProtKB P10520, entry "O=C(O)CN1C(=O)/C(=C\c2cc(Br)ccc2OCc2ccccc2Cl)SC1=S"
> 150 µM (not active)

UniProtKB P10520 / EC50 / "CCOP(=O)(Cc1ccc(C(=O)CC)o1)OCC" : value?
> 150 µM (not active)

# returns recorded EC50 (system: UniProtKB P10520) for "Cc1ccc(-c2nc3cc(NS(=O)(=O)c4ccc(C)cc4)ccc3o2)cc1"
5.86 µM (active)

Checklist item: EC50 tested on UniProtKB P10520, entry "CCn1cc(CN2CCC(n3nccc3NC(=O)Cc3ccccc3)CC2)cn1" , value?
> 150 µM (not active)

----------
molecular target: Ubiquitin-conjugating enzyme E2 N (Homo sapiens); type: functional;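 further: Dose-response confirmation in a TR-FRET assay detecting UBC13-driven polyubiquitin chain formation, inhibition measured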
Sequence (P61088 whole entry): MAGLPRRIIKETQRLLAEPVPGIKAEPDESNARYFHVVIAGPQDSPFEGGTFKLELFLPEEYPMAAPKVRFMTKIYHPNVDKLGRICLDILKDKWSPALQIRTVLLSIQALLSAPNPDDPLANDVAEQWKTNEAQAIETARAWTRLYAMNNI
Active and inactive are the calls of the source.
Assign a class; possible classes are t (active), f (inactive)

Reference set (2 entries):
1) O=C(CCN1C(=O)/C(=C/c2ccccc2Cl)SC1=S)NCCCN1CCOCC1
f
2) C#CCOCCOCCOCCNc1nc(N2CCN(C(=O)CCCCCCCCCCNC(=O)Cn3cc(C[C@@H](C)O)nn3)CC2)nc(N2CCN(C(=O)CCCCCCCCCCNC(=O)[C@@H]([C@H](C)CC)n3cc(CCCCCN)nn3)CC2)n1
t

GET /call?item= CCOc1ccc(C(=O)C(C)OC(=O)c2nc(Cl)ccc2Cl)cc1 (stereo not given) returns the recorded outcome of this test.
f

Could you check what this test reported for CC1CCCC(C)N1CCCNC(=O)C1CCCN(c2ncnc3c2nc2n3CCCCC2)C1 (stereo not given) ?
f

Test call for this molecule, please: "CCN(CC)CCOC(=O)c1ccc(N/C=C(/C#N)c2nc(-c3ccc4c(c3)OCO4)cs2)cc1"
t
